target_or_system: Corticotropin-releasing factor receptor 2/Corticotropin-releasing factor-binding protein (Homo sapiens, UniProt P24387+Q13324)
Sequence (Q13324 whole entry): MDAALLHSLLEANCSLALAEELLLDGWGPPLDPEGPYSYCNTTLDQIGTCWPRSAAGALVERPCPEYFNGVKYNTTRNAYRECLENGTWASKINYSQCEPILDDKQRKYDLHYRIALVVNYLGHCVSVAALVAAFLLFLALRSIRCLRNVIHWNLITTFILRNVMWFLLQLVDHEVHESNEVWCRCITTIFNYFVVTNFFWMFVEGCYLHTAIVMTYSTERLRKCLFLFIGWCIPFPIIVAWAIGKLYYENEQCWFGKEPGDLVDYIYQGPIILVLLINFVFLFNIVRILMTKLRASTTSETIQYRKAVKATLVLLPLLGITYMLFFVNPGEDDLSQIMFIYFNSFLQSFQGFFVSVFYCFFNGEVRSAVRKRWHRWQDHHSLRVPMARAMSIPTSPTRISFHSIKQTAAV
Sequence (P24387 whole entry): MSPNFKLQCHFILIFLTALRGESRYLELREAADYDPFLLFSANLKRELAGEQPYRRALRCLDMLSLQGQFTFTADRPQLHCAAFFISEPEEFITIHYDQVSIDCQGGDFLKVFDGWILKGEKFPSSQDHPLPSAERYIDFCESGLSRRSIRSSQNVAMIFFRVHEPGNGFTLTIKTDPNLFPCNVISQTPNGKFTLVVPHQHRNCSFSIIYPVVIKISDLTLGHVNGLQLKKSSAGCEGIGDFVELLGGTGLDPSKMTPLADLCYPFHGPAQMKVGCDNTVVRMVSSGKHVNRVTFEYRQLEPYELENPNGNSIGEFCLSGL
test_method_notes: Dose Response confirmation of uHTS hits for small molecule antagonists of the CRF-binding protein and CRF-R2 receptor complex.
Type: functional
condition_details: read-out: IC50_Mean
Activity calls are given as the source filed them. Cut-off read from the data, not from the text of the source: actives have a measured IC50 and inactives only a lower limit.
Your response should consist of one outcome taken from 1 (active), -1 (inactive)

In: Outcome logged for CCc1c(C)nc(SCC(=O)N2CCN(c3ccccc3OC)CC2)nc1O in this assay:
Out: -1

In: Outcome logged for COc1cc(NC(=O)[C@H](C)NC(=O)N2CCn3c2nc2ccccc23)cc(OC)c1 in this assay:
Out: -1

In: Outcome logged for O=C(Cn1nc(Cl)nc1Cl)Nc1ccccc1 in this assay:
Out: -1

In: Outcome logged for CN(C(=O)COC(=O)CCc1nc2ccccc2c(=O)[nH]1)C1CCS(=O)(=O)C1 (stereo unspecified) in this assay:
Out: 1

---
In: Outcome logged for COc1ccc(-c2cc(C(=O)NC3CCCC3)c3ccccc3n2)cc1OC in this assay:
Out: -1

In: Outcome logged for CCN(C(=O)CCc1nnc2ccc(N3CCC4(CC3)OCCO4)nn12)c1ccccc1 in this assay:
Out: -1
